System: cell lines from the Cancer Cell Line Encyclopedia (CCLE)
testName: High-throughput cell viability assay, CCLE cell line panel (n = 356)
Format: cell-based, human
settings: Homo sapiens, SCaBER, read-out: NVP- CFC218 IC50 (µM), cell line SCaBER, urinary_tract, TP53 MUT
endpoint: IC50

stdin: Check the records and state IC50 for COc1cc2c(cc1OC(C)C)[C@H](c1ccc(Cl)cc1)N(c1ccc(N(C)C[C@H]3CC[C@H](N4CCNC(=O)C4)CC3)cc1)C(=O)C2
stdout: > 8 µM

###

Test system: cell lines from the Cancer Cell Line Encyclopedia (CCLE)
testName: High-throughput cell viability assay, CCLE cell line panel (n = 356)
Format: cell-based, human
settings: Homo sapiens, COV318, COV318, TP53 MUT
pIC50: −log10 of the molar value.
endpoint: pIC50

stdin: Check the records and state pIC50 for COc1cc2c(cc1OC(C)C)[C@H](c1ccc(Cl)cc1)N(c1ccc(N(C)C[C@H]3CC[C@H](N4CCNC(=O)C4)CC3)cc1)C(=O)C2 [NVP-CFC218]
stdout: < 5.10
